- EXPERIMENTAL SYSTEM: Jak2 (Jak2-WT) (Mus musculus, UniProt Q62120)
- Sequence (Q62120 whole entry): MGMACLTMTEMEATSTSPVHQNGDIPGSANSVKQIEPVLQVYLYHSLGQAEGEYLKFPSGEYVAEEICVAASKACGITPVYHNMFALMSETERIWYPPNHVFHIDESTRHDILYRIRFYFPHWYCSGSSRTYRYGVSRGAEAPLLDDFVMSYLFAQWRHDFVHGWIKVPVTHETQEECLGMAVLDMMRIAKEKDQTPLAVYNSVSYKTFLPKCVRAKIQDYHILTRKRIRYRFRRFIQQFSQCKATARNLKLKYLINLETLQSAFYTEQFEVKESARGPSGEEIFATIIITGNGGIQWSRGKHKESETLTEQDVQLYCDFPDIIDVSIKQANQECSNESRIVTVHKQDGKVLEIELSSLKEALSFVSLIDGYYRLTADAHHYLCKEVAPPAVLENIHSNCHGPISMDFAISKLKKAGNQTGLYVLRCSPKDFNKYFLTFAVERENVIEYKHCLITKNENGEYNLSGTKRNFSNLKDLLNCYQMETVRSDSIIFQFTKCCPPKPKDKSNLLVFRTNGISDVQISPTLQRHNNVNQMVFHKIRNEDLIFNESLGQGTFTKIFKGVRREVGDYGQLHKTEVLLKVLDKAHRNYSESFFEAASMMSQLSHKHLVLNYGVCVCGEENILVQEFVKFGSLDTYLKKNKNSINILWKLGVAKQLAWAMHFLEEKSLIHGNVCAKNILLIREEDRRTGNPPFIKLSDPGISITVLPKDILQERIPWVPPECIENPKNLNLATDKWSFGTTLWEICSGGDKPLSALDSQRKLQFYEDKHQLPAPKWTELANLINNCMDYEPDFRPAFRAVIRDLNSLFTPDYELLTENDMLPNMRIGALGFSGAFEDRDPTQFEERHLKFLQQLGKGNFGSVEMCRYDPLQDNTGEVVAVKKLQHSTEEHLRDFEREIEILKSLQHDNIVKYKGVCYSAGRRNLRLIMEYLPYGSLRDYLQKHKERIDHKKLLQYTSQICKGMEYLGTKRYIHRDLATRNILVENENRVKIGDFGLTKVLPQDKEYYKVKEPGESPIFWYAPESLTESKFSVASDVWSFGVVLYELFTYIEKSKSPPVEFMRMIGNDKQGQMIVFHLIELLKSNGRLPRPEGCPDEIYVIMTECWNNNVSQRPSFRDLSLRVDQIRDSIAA
- ASSAY REMARKS: autophosphorylation
pIC50: −log10 of the molar value.
ENDPOINT: pIC50

Challenge: GET /values?readout=pIC50&item= "CC(CCc1ccccn1)(CCc1ccccn1)C(=O)c1ccccc1"
Response given: ~4.82
